Parameter: pK1. Scope: all listed entries.
- Target of assay: UniProt:P19327
- Sequence (whole entry): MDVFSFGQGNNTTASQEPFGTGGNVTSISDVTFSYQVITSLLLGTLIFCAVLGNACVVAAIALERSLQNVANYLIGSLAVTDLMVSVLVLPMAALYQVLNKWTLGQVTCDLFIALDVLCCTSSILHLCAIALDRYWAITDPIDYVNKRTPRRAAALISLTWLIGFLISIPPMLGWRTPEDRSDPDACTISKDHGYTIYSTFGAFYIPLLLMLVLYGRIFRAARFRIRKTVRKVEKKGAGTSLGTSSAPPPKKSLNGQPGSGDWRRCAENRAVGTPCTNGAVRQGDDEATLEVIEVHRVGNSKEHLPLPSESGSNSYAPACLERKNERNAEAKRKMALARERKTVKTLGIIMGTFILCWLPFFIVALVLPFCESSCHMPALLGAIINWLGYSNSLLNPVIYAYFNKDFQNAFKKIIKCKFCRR
- Protocol details: Antagonistic activity against 5-hydroxytryptamine 1A receptor in rat cerebral cortex using [3H]-8-OH-DPAT as radioligand.
- Type: functional, tissue-based

{"Molecule": "O=C1C2CCCN2C(=O)CN1CCCCN1CCN(c2ccccc2C(F)(F)F)CC1 (stereo not given)", "pK1": 8.26}
{"Molecule": "Cc1ccccc1N1CCN(CCCCN2CC(=O)N3CCCCC3C2=O)CC1 (stereo not given)", "pK1": 7.5}
{"Molecule": "CCCCOc1ccccc1N1CCN(CCCN2CC(=O)N3CCCCC3C2=O)CC1 (stereo not given)", "pK1": 7.04}
{"Molecule": "CCCNC(=O)c1ccccc1N1CCN(CCCN2C(=O)C3CCCN3C2=O)CC1 (stereo not given)", "pK1": 6.09}
{"Molecule": "CCCCOc1ccccc1N1CCN(CCCN2C(=O)C3CCCN3C2=O)CC1 (stereo not given)", "pK1": 7.82}
{"Molecule": "N#Cc1ccccc1N1CCN(CCCN2CC(=O)N3CCCC3C2=O)CC1 (stereo not given)", "pK1": 7.56}
{"Molecule": "CCCOC(=O)c1ccccc1N1CCN(CCCCN2C(=O)C3CCCN3C2=O)CC1 (stereo not given)", "pK1": 8.32}
{"Molecule": "CCCOC(=O)c1ccccc1N1CCN(CCCN2C(=O)C3CCCCN3C2=O)CC1 (stereo not given)", "pK1": 7.34}
{"Molecule": "N#Cc1ccccc1N1CCN(CCCN2C(=O)C3CCCCN3C2=O)CC1 (stereo not given)", "pK1": 7.19}
{"Molecule": "Cc1ccccc1N1CCN(CCCCN2CC(=O)N3CCCC3C2=O)CC1 (stereo not given)", "pK1": 7.92}

====

- Target of assay: 5-hydroxytryptamine receptor 1A (Rattus norvegicus) (UniProt P19327)
- Protocol details: Antagonistic activity against 5-hydroxytryptamine 1A receptor in rat cerebral cortex using [3H]8-OH-DPAT as radioligand.
- Assay type: functional, tissue-based
Parameter: K1. Scope: all listed entries.

{"Molecule": "CCCCOc1ccccc1N1CCN(CCCCN2CC(=O)N3CCCC3C2=O)CC1 (stereo not given)", "Units label": "nM", "K1": 8.7}
{"Molecule": "Nc1cccc(N2CCN(CCCN3C(=O)C4CCCN4C3=O)CC2)c1 (stereo not given)", "Units label": "nM", "K1": 1180}
{"Molecule": "CCCCOc1ccccc1N1CCN(CCCCN2C(=O)C3CCCCN3C2=O)CC1 (stereo not given)", "Units label": "nM", "K1": 2.2}
{"Molecule": "O=C1C2CCCCN2C(=O)CN1CCCN1CCN(c2ccccc2C(F)(F)F)CC1 (stereo not given)", "Units label": "nM", "K1": 179}
{"Molecule": "CCCOC(=O)c1ccccc1N1CCN(CCCCN2C(=O)C3CCCN3C2=O)CC1 (stereo not given)", "Units label": "nM", "K1": 4.8}
